// provenance: ChEMBL document CHEMBL1201862

Entries and their GI50 values follow.
Tested on: COLO 205
Assay Overview: NCI tumour cell line growth inhibition, 48 h
Active and inactive are the calls of the source. Cut-off read from the data, not from the text of the source: active = GI50 up to about 1.1 µM and inactive = higher.

Worked set:
INSERT INTO results (molecule, recorded_metric, result_value) VALUES
  ('O=C1/C(=C/c2ccc(Cl)c(Cl)c2)CNC/C1=C\c1ccc(Cl)c(Cl)c1', 'GI50', '5.27 µM (inactive)'),
  ('C=C1C(=O)OC2C1CC[C@H](C)C1(O)C(O)CC(=O)[C@@]21C (some centres undefined)', 'GI50', '16.3 µM (inactive)'),
  ('CC(=O)c1c2c(cc3c1CC1(Cc4cc5c(cc4C1=O)CCC5)C3)CCC2 (centres undefined)', 'GI50', '64.6 µM (inactive)'),
  ('O=C1c2ccccc2C(=O)c2c1sc1nc3ccccc3n21', 'GI50', '1.8 µM (inactive)'),
  ('CCOC(=O)C(=[N+]=[N-])C(=O)C[N+]12CCN(CC1)CC2', 'GI50', '> 100 µM (inactive)');

Query: Hello, please tell me recorded GI50 for this one: CS(=O)(=O)N/N=C/CN1C(=O)c2ccccc2C1=O
Result: > 100 µM (inactive)

Query: Output GI50 of COc1ccc(Br)c(CN2CCc3ccccc32)c1OS(=O)(=O)c1ccc(C)cc1
Result: 11.9 µM (inactive)

Query: Report GI50, nothing else, for this molecule: Cc1cn2c(/C=N/NC(=N)N)c(-c3ccc(Cl)c([N+](=O)[O-])c3)nc2s1
Result: 0.661 µM (active)

Query: Assign GI50 to the following record: CCOC(=O)Cc1c(C)c2ccc(OC(C)=O)c(OC(C)=O)c2oc1=O
Result: 40 µM (inactive)
